The measured values listed here are drawn from PubChem BioAssay (NCI).

tested on: A498 renal; test: NCI-60 one-dose screen, 48 h (100 = growth as untreated, 0 = no growth, -100 = all killed); conditions: 10 µM unless noted
About 83,000 compounds went through this panel and 20% of them were active in at least one assay; those are over-represented in the sample as a whole. Activity calls are given as the source filed them. Rule for the calls: active = growth percent below 10; inactive = the rest.
Recorded growth for the following compounds

Consider the reported growth for these compounds:
>  <COMPOUND>
NC1=CC(=O)c2ccccc2C1=O

>  <RESULT>
90% (inactive)

$$$$
>  <COMPOUND>
NC(N)=N/N=C/c1ccc([N+](=O)[O-])o1

>  <RESULT>
105% (inactive)

$$$$
>  <COMPOUND>
O=[N+]([O-])c1ccc(N=Nc2ccc(O)cc2O)cc1

>  <RESULT>
13.8% (inactive)

$$$$
>  <COMPOUND>
O=C(O)c1ccc2c3c(ncnc13)-c1ccccc1C2=O

>  <RESULT>
-2.38% (active)

$$$$
>  <COMPOUND>
O[C@H]1[C@H]2c3cc4c(cc3CN3CCC(=C[C@@H]1O)[C@H]23)OCO4

>  <RESULT>
51.4% (inactive)

$$$$
>  <COMPOUND>
CC1OC(OC2C(OC3CCC4(C)C(CCC5(C)C4CC=C4C6CC(C)(C)CCC6(CO)C(O)CC45C)C3(C)C)OC(C(=O)O)C(OC3OC(COC4OC(CO)C(O)C(O)C4O)C(O)C(O)C3O)C2O)C(O)C(O)C1O (configuration not stated)

>  <RESULT>
-88% (active)

$$$$
>  <COMPOUND>
O=C(Oc1cccc2cccnc12)c1ccccc1

>  <RESULT>
117% (inactive)

$$$$
>  <COMPOUND>
CCOc1ccc(-c2nc3ccc(-c4nc5ccc(N6CCN(C)CC6)cc5[nH]4)cc3[nH]2)cc1

>  <RESULT>
-91.6% (active)

$$$$

Supply reported growth belonging to this compound: N#CC1C(=O)SC2c3ccccc3C(=O)c3ccccc3C12 (configuration not stated)
105% (inactive)

Supply reported growth belonging to this compound: `Cn1c2ccccc2c2nnc(N/N=C/c3ccccn3)nc21`
34.5% (inactive)

Supply reported growth belonging to this compound: `Cc1cc(N)c2ccccc2[n+]1CCCCCCCCCC[n+]1c(C)cc(N)c2ccccc21`
-7.94% (active)

Supply reported growth belonging to this compound: `O=C(Nc1ccc(F)cc1)ON=C1CCCCC1`
95.2% [100 µM] (inactive)

Supply reported growth belonging to this compound: `N#CSCC(=O)c1ccc(Cl)cc1`
83.7% (inactive)

Supply reported growth belonging to this compound: `Cn1c2c(c3ccccc31)CCN1C[C@@H]3CCCC[C@H]3C[C@@H]21`
-5.89% (active)

Supply reported growth belonging to this compound: `CN(C)C(=O)SC1=C(c2c(Cl)cccc2Cl)C(=O)c2ccccc21`
115% (inactive)

Supply reported growth belonging to this compound: `CN(C)CCOc1ccc2c(c1)C(=O)/C(=C\c1ncc([N+](=O)[O-])n1C)C2`
-88% (active)

Supply reported growth belonging to this compound: `CCN1/C(=C\c2cc[n+](CC)c3ccccc23)C=Cc2ccccc21`
-20.2% (active)

Supply reported growth belonging to this compound: `NC(=S)N/N=C/c1ccc(Cl)s1`
97.1% (inactive)

###

system: EKVX NSCLC; assay: NCI-60 one-dose screen, 48 h; details: 10 µM unless noted
This is part of a sample that, as a whole, favours compounds with a hit. Of some 83,000 tested, about 20% had one in any assay. The source made the active and inactive calls. Rule for the calls: active = growth percent below 10; inactive = the rest.
Please answer using one outcome listed in 1 for active, 0 for inactive

Completed entries (count: 8):
>  <MOLECULE>
CCC(=O)Sc1ccccc1C(=O)Nc1ccc(Cl)cc1

>  <LABEL_CLASS>
0

$$$$
>  <MOLECULE>
Nc1ccc(SSc2ccc(N)cc2)cc1

>  <LABEL_CLASS>
0

$$$$
>  <MOLECULE>
O=C(/C=C\c1ccccc1)N1c2ccccc2CC1c1c[nH]c2ccccc12 (centres undefined)

>  <LABEL_CLASS>
0

$$$$
>  <MOLECULE>
O=C(Nc1ccc(F)cc1)ON=C1CCCCC1

>  <LABEL_CLASS>
0

$$$$
>  <MOLECULE>
CCC(CCCN(CC)CCc1ccccc1)OC(=O)c1cc(OC)c(OC)c(OC)c1 (centres undefined)

>  <LABEL_CLASS>
0

$$$$
>  <MOLECULE>
O=C1c2ccccc2C(=O)N1c1ccccc1

>  <LABEL_CLASS>
0

$$$$
>  <MOLECULE>
NC(N)=N/N=C/c1ccc([N+](=O)[O-])o1

>  <LABEL_CLASS>
0

$$$$
>  <MOLECULE>
N#Cc1ccc([N+](=O)[O-])o1

>  <LABEL_CLASS>
0

$$$$

Entry CCC1OC(OC)C=CC1=O (centres undefined) : call = ?
0

Entry O=C1C2=C(Nc3cc([N+](=O)[O-])ccc3N2)OC1c1c2ccccc2cc2ccccc12 (centres undefined) : call = ?
0

Entry `O=C(/C=C/C=C/c1ccccc1)c1ccco1` : call = ?
0

Entry `Cc1ccc2nc(C[n+]3ccc4ccccc4c3)ccc2c1` : call = ?
0

Entry `CCCCCC(CCCCC)C(=O)O` : call = ?
0

Entry `O=[N+]([O-])c1ccc(N=Nc2ccc(O)cc2O)cc1` : call = ?
0

###

system: ACHN renal; experiment: NCI-60 one-dose screen, 48 h; conditions: 10 µM unless noted
Compounds without any hit were thinned out: in the full panel of roughly 83,000, 20% have a hit. Calls of active or inactive are those of the source. The calls were made as follows: active = growth percent below 10; inactive = the rest.
Please answer using one outcome listed in active, inactive

>  <COMPOUND>
Oc1c(Cl)c2ccccc2c2ccccc12

>  <MEASURED_TARGET>
ACHN renal

>  <LABEL_CLASS>
inactive

$$$$
>  <COMPOUND>
O=C1c2ccccc2C(=O)N1c1ccccc1

>  <MEASURED_TARGET>
ACHN renal

>  <LABEL_CLASS>
inactive

$$$$
>  <COMPOUND>
O=C(O)c1ccc2c3c(ncnc13)-c1ccccc1C2=O

>  <MEASURED_TARGET>
ACHN renal

>  <LABEL_CLASS>
inactive

$$$$
>  <COMPOUND>
CCOC(=O)c1c(C)[nH]c(CO)c1C

>  <MEASURED_TARGET>
ACHN renal

>  <LABEL_CLASS>
inactive

$$$$
>  <COMPOUND>
COC(=O)c1nc(=S)[nH]c(C(=O)OC)c1C(=O)c1ccc2ccccc2c1

>  <MEASURED_TARGET>
ACHN renal

>  <LABEL_CLASS>
inactive

$$$$
>  <COMPOUND>
CCOC(=O)/C=C/c1ccc([N+](=O)[O-])o1

>  <MEASURED_TARGET>
ACHN renal

>  <LABEL_CLASS>
active

$$$$
>  <COMPOUND>
COc1cc(NS(C)(=O)=O)ccc1Nc1c2ccccc2nc2ccccc12

>  <MEASURED_TARGET>
ACHN renal

>  <LABEL_CLASS>
active

$$$$
>  <COMPOUND>
S=C(N/N=C/c1ccccn1)Nc1ccccn1

>  <MEASURED_TARGET>
ACHN renal

>  <LABEL_CLASS>
inactive

$$$$

Entry Nc1nc(N)c2nc(CNc3ccc(C(=O)NC(CCC(=O)O)C(=O)O)cc3)cnc2n1 (stereo not drawn) : call = ?
inactive

Entry `CCOc1ccc(-c2nc3ccc(-c4nc5ccc(N6CCN(C)CC6)cc5[nH]4)cc3[nH]2)cc1` : call = ?
active

Entry `CCCCCCCCCCCCCCNCc1ccccc1` : call = ?
inactive

###

tested on: M14 melanoma; assay: NCI-60 one-dose screen, 48 h; settings: 10 µM unless noted
About 83,000 compounds went through this panel and 20% of them were active in at least one assay; those are over-represented in the sample as a whole. Calls of active or inactive are those of the source. How the source made its calls: active means growth percent below 10; inactive means the rest.
Please answer using one outcome listed in true = active, false = inactive

Completed entries (count: 5):
>  <COMPOUND>
C[n+]1c(/C=C/c2ccc([N+](=O)[O-])cc2)ccc2ccccc21

>  <MEASURED_TARGET>
M14 melanoma

>  <LABEL_CLASS>
false

$$$$
>  <COMPOUND>
N#CSCc1c(Cl)cccc1Cl

>  <MEASURED_TARGET>
M14 melanoma

>  <LABEL_CLASS>
true

$$$$
>  <COMPOUND>
CN1c2ccccc2C(C)(C)C12C=Cc1cc(O)ccc1O2 (stereo unspecified)

>  <MEASURED_TARGET>
M14 melanoma

>  <LABEL_CLASS>
false

$$$$
>  <COMPOUND>
CCC(CCCN(CC)CCc1ccccc1)OC(=O)c1cc(OC)c(OC)c(OC)c1 (stereo unspecified)

>  <MEASURED_TARGET>
M14 melanoma

>  <LABEL_CLASS>
false

$$$$
>  <COMPOUND>
O=C1C=CC(=O)N1C1c2ccccc2-c2ccccc21

>  <MEASURED_TARGET>
M14 melanoma

>  <LABEL_CLASS>
false

$$$$

We now examine a further compound.
Entry CCCCCCCCCCCCCCCC[N+](C)(CCO)Cc1cnc[nH]1 (stereo unspecified) : call = ?
true
